// reported pEC50 per item
# Experiment description: Cell protective activity in human MC65 cells assessed as protection against amyloid beta precursor protein C99-induced neuronal cell death after 3 days by MTT assay
# Format: functional, cell-based
# Settings: 72 h
On this scale, pEC50 is minus log10 of a concentration expressed in M (mol/L).

Reference set (2 entries):
{"Entry smiles": "Cc1cc2c(c(=O)o1)C=C1CC[C@H]([C@@H](C)Cn3cc(C)c(=O)[nH]c3=O)C[C@@H]1O2", "Measurement name": "pEC50", "Recorded value": 5.16}
{"Entry smiles": "Cc1cc2c(c(=O)o1)C=C1CC[C@H]([C@@H](C)CSc3ncccn3)C[C@@H]1O2", "Measurement name": "pEC50", "Recorded value": 5.86}

So for "COc1ccc(Cn2c(C)cc3c(c2=O)C=C2CC[C@H]([C@@H](C)Cn4cnc(N)c5ncnc4-5)C[C@@H]2O3)cc1" , the logged pEC50 turned out to be 6.46

compound "C=C(C)[C@H]1CCC2=Cc3c(cc(C)n(Cc4ccc(OC)cc4)c3=O)O[C@H]2C1" , pEC50 observed: 5.90

Recorded pEC50 (compound "C=C(C)[C@@H]1CCc2cnc3cc(C)oc(=O)c3c2C1" ): 5.60

pEC50 reading for "Cc1cc2c(c(=O)o1)C=C1CC[C@H]([C@@H](C)Cn3cnc4c(Cl)ncnc43)C[C@@H]1O2" : 6.03

So for "C=C(Cn1cnc(N)c2ncnc1-2)[C@H]1CCC2=Cc3c(cc(C)oc3=O)O[C@H]2C1" , the logged pEC50 turned out to be 5.71

Entry "Cc1cc2c(c(=O)o1)C=C1CC[C@H]([C@@H](C)Cn3cnc4c(N)ncnc43)C[C@@H]1O2" ; pEC50 = 5.52

For reference, reported pEC50 for "Cc1cc2c(c(=O)o1)C=C1CC[C@H]([C@@H](C)Cn3cc(C#N)c(N)n3)C[C@@H]1O2" stands at 5.08

---

Measured pEC50, listed per entry for reference.
# Experiment description: Cell protective activity in human MC65 cells assessed as protection against amyloid beta precursor protein C99-induced neuronal cell death after 3 days by MTT assay
# Format: functional, cell-based
# Settings: 72 h
Formally, pEC50 is defined as -log10 of the concentration c, with c in mol/L.

{"Entry smiles": "Cc1cc2c(c(=O)o1)C=C1CC[C@H]([C@@H](C)COc3nccc(N)n3)C[C@@H]1O2", "Recorded value": 5.53}

The molecule "Cc1cc2c(c(=O)o1)C=C1CC[C@H]([C@@H](C)Cn3cnc4cnc(N)nc43)C[C@@H]1O2" showed pEC50 equal to 6.07

Lab note: measured pEC50 of "Cc1cc2c(c(=O)o1)C=C1CC[C@H]([C@@H](C)Cn3cnc(N)c4ncnc3-4)C[C@@H]1O2" was 6.51

Reference source: ChEMBL document CHEMBL1143332
